# target_or_test_system: BTK protein (Homo sapiens, UniProt Q06187)
# Construct: endogenous in cells; host or cells: TMD-8 cells
# Sequence (Q06187 whole entry): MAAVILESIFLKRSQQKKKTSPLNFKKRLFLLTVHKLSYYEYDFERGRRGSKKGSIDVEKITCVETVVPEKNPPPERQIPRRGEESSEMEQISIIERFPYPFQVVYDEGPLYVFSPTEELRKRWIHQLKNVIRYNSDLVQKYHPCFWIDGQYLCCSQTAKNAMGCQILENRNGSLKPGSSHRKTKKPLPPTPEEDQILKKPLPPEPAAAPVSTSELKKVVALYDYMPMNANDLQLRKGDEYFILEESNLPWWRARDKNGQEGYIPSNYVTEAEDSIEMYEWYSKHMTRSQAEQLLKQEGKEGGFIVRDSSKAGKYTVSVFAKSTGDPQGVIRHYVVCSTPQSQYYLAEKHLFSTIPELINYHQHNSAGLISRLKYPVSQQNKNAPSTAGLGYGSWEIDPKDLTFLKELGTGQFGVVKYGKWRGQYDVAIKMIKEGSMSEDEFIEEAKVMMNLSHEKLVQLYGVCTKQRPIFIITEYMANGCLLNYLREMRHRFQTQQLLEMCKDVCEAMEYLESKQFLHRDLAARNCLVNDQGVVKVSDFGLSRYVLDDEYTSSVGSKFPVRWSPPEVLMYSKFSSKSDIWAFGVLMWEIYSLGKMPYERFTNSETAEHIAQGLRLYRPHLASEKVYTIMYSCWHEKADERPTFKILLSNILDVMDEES
# measurement_notes: Measurement of BTK protein degradation ability in TMD-8 cells (Western blotting)
# Type: cell-based
# study_conditions: compound 100 nM, harvested after 24 hours
parameter_measured: BTK degradation (%) 100 nM

Cc1cc(-c2ccnc(Nc3ccc(N4CCC(CN5CCC(c6ccc(NC7CCC(=O)NC7=O)cc6)CC5)CC4)nc3)n2)ccc1CNC(=O)N1CC(OC(C)C)C1 (centres unmarked); 99.0
Cc1cc(-c2ccnc(Nc3ccc(N4CCN(CC5CCN(c6cccc(NC7CCC(=O)NC7=O)c6)CC5)CC4)cc3)n2)ccc1CNC(=O)c1cnn(C(C)(C)C)c1 (centres unmarked); 99.0
Cc1cc(-c2ccnc(Nc3cnn(C4CCN(CC5CCN(C(=O)c6cccc(NC7CCC(=O)NC7=O)c6)CC5)CC4)c3)n2)ccc1CNC(=O)N1CC(OC(C)C)C1 (centres unmarked); 95.0
Cc1c(NC(=O)N2CC(OC(C)C)C2)cc(F)cc1-c1ccnc(Nc2ccc(N3CCN(CC4CN(c5ccc6c(c5)C(=O)N(C5CCC(=O)NC5=O)C6=O)C4)CC3)cc2)n1 (centres unmarked); 94.5
Cc1cc(-c2ccnc(Nc3ccc(N4CCC(CN5CCC(c6ccc(NC7CCC(=O)NC7=O)cc6)CC5)CC4)cc3)n2)ccc1CNC(=O)c1cn(C(C)(C)C)nn1 (centres unmarked); 98.5
Cc1cc(-c2ccnc(Nc3ccc(N4CCN(CC5CN(c6ccc7c(c6)C(=O)N(C6CCC(=O)NC6=O)C7=O)C5)CC4)cc3)n2)ccc1CNC(=O)c1cnn(C(C)(C)C)c1 (centres unmarked); 98.5
Cc1cc(-c2ccnc(Nc3ccc(N4CCN(CC5CCN(c6ccc7c(c6)C(=O)N(C6CCC(=O)NC6=O)C7=O)CC5)CC4)cc3)n2)ccc1CNC(=O)c1cnn(C(C)(C)C)c1 (centres unmarked); 97.5
Cc1cc(-c2ccnc(Nc3ccc(N4CCN(CC5CCN(c6cc7c(cc6F)C(=O)N(C6CCC(=O)NC6=O)C7=O)CC5)CC4)cc3)n2)ccc1CNC(=O)N1CC(OC(C)C)C1 (centres unmarked); 98.5
Cc1cc(-c2ccnc(Nc3ccc4c(c3)CN(CC3CCN(c5ccc6c(c5)C(=O)N(C5CCC(=O)NC5=O)C6=O)CC3)CC4)n2)ccc1CNC(=O)c1cn(C(C)(C)C)nn1 (centres unmarked); 93
Cc1cc(-c2ccnc(Nc3ccc(C4CCN(C5CCN(C(=O)c6cccc(NC7CCC(=O)NC7=O)c6)CC5)CC4)cc3)n2)ccc1CNC(=O)N1CC(OC(C)C)C1 (centres unmarked); 95.5
Cc1cc(-c2ccnc(Nc3ccc(N4CCN(CC5CCN(c6ccc(NC7CCC(=O)NC7=O)cc6F)CC5)CC4)cc3)n2)ccc1CNC(=O)c1cn(C(C)(C)C)nn1 (centres unmarked); 99.0

###

# target_or_test_system: BTK protein (Homo sapiens)
# Construct: endogenous in cells; host or cells: TMD-8 cells
# measurement_notes: Measurement of BTK protein degradation ability in TMD-8 cells (Western blotting)
# Type: cell-based
# study_conditions: compound 10 nM, harvested after 24 hours
parameter_measured: BTK degradation (%) 10 nM

I. Cc1cc(-c2ccnc(Nc3ccc(C4CCN(C5CCN(c6ccc7c(c6)C(=O)N(C6CCC(=O)NC6=O)C7=O)CC5)CC4)cc3)n2)ccc1CNC(=O)N1CC(OC(C)C)C1 (centres unmarked)
II. Cc1cc(-c2ccnc(Nc3ccc(N4CCN(CC5CCN(C(=O)c6cccc(N7CCC(=O)NC7=O)c6)CC5)CC4)cc3)n2)ccc1CNC(=O)N1CC(OC(C)C)C1
INPUT: Form: Entry with minimum BTK degradation (%) 10 nM (choose one): I / II Label of pick, please.
OUTPUT: II
(II: 33%, I: 92.0%)

###

# target_or_test_system: BTK protein (Homo sapiens, UniProt Q06187)
# Construct: endogenous in cells; host or cells: TMD-8 cells
# measurement_notes: Measurement of BTK protein degradation ability in TMD-8 cells (Western blotting)
# Assay type: cell-based
# study_conditions: compound 1 nM, harvested after 24 hours
parameter_measured: BTK degradation (%) 1 nM

Cc1cc(-c2ccnc(Nc3cnn(C4CCN(CC5CCN(c6ccc7c(c6)C(=O)N(C6CCC(=O)NC6=O)C7=O)CC5)CC4)c3)n2)ccc1CNC(=O)c1cnn(C(C)(C)C)c1 (centres unmarked) [Example 37]; 54.5

a. Cc1cc(-c2ccnc(Nc3ccc(N4CCN(CC5CCN(c6ccc(N7CCC(=O)NC7=O)cc6)CC5)CC4)cc3)n2)ccc1CNC(=O)c1cn(C(C)(C)C)nn1 [Example 71]
b. Cc1cc(-c2ccnc(Nc3ccc(N4CCN(CC5CCN(Cc6cccc(NC7CCC(=O)NC7=O)c6)CC5)CC4)cc3)n2)ccc1CNC(=O)N1CC(OC(C)C)C1 (centres unmarked) [Example 115]
c. Cc1cc(-c2ccnc(Nc3ccc(N4CCN(CC5CCN(c6ccc7c(c6)C(=O)N(C6CCC(=O)NC6=O)C7=O)CC5)CC4)cc3)n2)ccc1COC(=O)N1CC(OC(C)C)C1 (centres unmarked) [Example 30]
d. Cc1cc(-c2ccnc(Nc3ccc(CN4CCN(CC5CCN(c6cccc(OC7CCC(=O)NC7=O)c6)CC5)CC4)cc3)n2)ccc1CNC(=O)N1CC(OC(C)C)C1 (centres unmarked) [Example 63]
INPUT: Arrange the 4 molecules from largest to smallest BTK degradation (%) 1 nM. Answer by writing out the labels in the requested order.
OUTPUT: a, b, d, c

###

# target_or_test_system: BTK protein (Homo sapiens, UniProt Q06187)
# Construct: endogenous in cells; host or cells: TMD-8 cells
# measurement_notes: Measurement of BTK protein degradation ability in TMD-8 cells (Western blotting)
# Assay type: cell-based
# study_conditions: compound 100 nM, harvested after 24 hours
parameter_measured: BTK degradation (%) 100 nM

Cc1cc(-c2ccnc(Nc3ccc(N4CCN(CC5CCN(c6cccc(NC7CCC(=O)NC7=O)c6)CC5)CC4)cc3)n2)ccc1CNC(=O)N1CC(OC(C)C)C1 (stereo not drawn) [Example 54]; 99.7

I. Cc1cc(CNC(=O)N2CC(OC(C)C)C2)cc(-c2ccnc(Nc3ccc(N4CCN(CC5CCN(c6ccc7c(c6)C(=O)N(C6CCC(=O)NC6=O)C7=O)CC5)CC4)cc3)n2)c1 (stereo not drawn) [Example 28]
II. Cc1cc(-c2ccnc(Nc3cnn(C4CCN(CC5CN(c6ccc7c(c6)C(=O)N(C6CCC(=O)NC6=O)C7=O)C5)CC4)c3)n2)ccc1CNC(=O)c1cnn(C(C)C)c1 (stereo not drawn) [Example 36]
INPUT: Thinking about recorded BTK degradation (%) 100 nM values, which is higher, I or II ? Indicate your choice by writing its label.
OUTPUT: II
(II: 99%, I: 4.5%)

###

# target_or_test_system: BTK protein (Homo sapiens)
# Construct: endogenous in cells; host or cells: TMD-8 cells
# measurement_notes: Measurement of BTK protein degradation ability in TMD-8 cells (Western blotting)
# Format: cell-based
# study_conditions: compound 10 nM, harvested after 24 hours
parameter_measured: BTK degradation (%) 10 nM

// solved cases for BTK degradation (%) 10 nM follow
Cc1cc(-c2ccnc(Nc3cnn(C4CCN(CC5CCN(c6ccc7c(c6)C(=O)N(C6CCC(=O)NC6=O)C7=O)CC5)CC4)c3)n2)ccc1CNC(=O)c1cn(C(C)(C)C)nn1 (centres unmarked); 93.5
Cc1cc(-c2ccnc(Nc3ccc(N4CCN(CC5CCN(c6cccc(OC7CCC(=O)NC7=O)c6)CC5)CC4)cc3)n2)ccc1CNC(=O)N1CC(OC(C)C)C1 (centres unmarked); 97.5
Cc1cc(-c2ccnc(Nc3ccc(N4CCN(CC5(C)CN(c6ccc7c(c6)C(=O)N(C6CCC(=O)NC6=O)C7=O)C5)CC4)cc3)n2)ccc1CNC(=O)N1CC(OC(C)C)C1 (centres unmarked); 85.5
Cc1cc(-c2ccnc(Nc3ccc(N4CCC(CN5CCC(c6cccc(N7CCC(=O)NC7=O)c6)CC5)CC4)cc3)n2)ccc1CNC(=O)c1cn(C(C)(C)C)nn1; 71.5
Cc1cc(-c2ccnc(Nc3ccc(N4CCC(CN5CCC(c6ccc(NC7CCC(=O)NC7=O)cc6)CC5)CC4)nc3)n2)ccc1CNC(=O)N1CC(OC(C)C)C1 (centres unmarked); 85.0

I. Cc1cc(-c2ccnc(Nc3ccc(N4CCN(CC5CCN(C(=O)c6cccc(NC7CCC(=O)NC7=O)c6)CC5)CC4)cc3)n2)ccc1CNC(=O)c1cnn(C(C)C)c1 (centres unmarked)
II. Cc1c(NC(=O)c2cn(C(C)(C)C)nn2)cc(F)cc1-c1ccnc(Nc2ccc(N3CCN(CC4CCN(c5ccc6c(c5)C(=O)N(C5CCC(=O)NC5=O)C6=O)CC4)CC3)cc2)n1 (centres unmarked)
INPUT: Compare I and II and name the one whose reported BTK degradation (%) 10 nM is smaller. Selection: enter the item's label.
OUTPUT: II
(II: 8.5%, I: 94.5%)
